Molecular target: DHPS (Homo sapiens, UniProt P49366)
Sequence (P49366 1-369): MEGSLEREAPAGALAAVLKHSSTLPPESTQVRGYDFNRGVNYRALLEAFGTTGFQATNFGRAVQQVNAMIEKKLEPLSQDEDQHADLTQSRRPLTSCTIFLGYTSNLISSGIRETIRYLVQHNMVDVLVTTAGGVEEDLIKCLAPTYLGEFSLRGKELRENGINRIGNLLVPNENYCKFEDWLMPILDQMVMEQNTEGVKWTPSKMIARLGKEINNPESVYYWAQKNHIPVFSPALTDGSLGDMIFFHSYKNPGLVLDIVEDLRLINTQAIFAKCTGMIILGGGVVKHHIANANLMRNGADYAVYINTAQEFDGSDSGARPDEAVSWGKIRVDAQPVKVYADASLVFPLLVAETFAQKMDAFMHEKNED
Assay: Hyp'Assay: cell-free eIF5A hypusination in 96-well plates (recombinant eIF5A, DHPS, DOHH; anti-hypusine antibody Hpu24), substance present in the DHPS step
Endpoint: EC50 (µM)
One number for each entry, in µM.

Summary line: NCCCCNCCCN [spermidine] , DHPS (Homo sapiens, UniProt P49366), reported EC50 = 5
